# Test description: Hemolytic activity in mouse erythrocytes assessed as hemolysis level at 125 ug/ml incubated for 1 hr at 37 degC
# Assay type: ADME, cell-based, Erythrocyte
# Run parameters: read-out: Activity
Values of hemolysis at 1 h, 125 ug/ml strictly less than 90% map to label 1, and values of at least 90% map to label 0.

Molecule | Class assignment
CCCCCCCCC(O)(Cn1cncn1)c1ccc(F)cc1F (stereo unspecified) | label 0
CCCCCCC(O)(Cn1cncn1)c1ccccc1F (stereo unspecified) | label 1
CCCCC(O)(Cn1cncn1)c1ccc(F)cc1F (stereo unspecified) | label 1
CCCCCCC(O)(Cn1cncn1)c1ccc(F)cc1 (stereo unspecified) | label 1
CCCCCC(O)(Cn1cncn1)c1ccc(Cl)cc1Cl (stereo unspecified) | label 0

----------
# Test description: Selectivity index, ratio of EC50 for toxicity in human BEAS2B cells to MIC50 for antifungal activity against Candida krusei ATCC 6258
# Run parameters: BEAS-2B cells

Molecule | selectivity ratio
CCCCCCC(O)(Cn1cncn1)c1ccc(Cl)cc1 (stereo unspecified) | 16
CCCCCCC(O)(Cn1cncn1)c1ccccc1F (stereo unspecified) | 522
CCCCCCC(O)(Cn1cncn1)c1ccccc1Cl (stereo unspecified) | 261
CCCCCC(O)(Cn1cncn1)c1ccccc1Cl (stereo unspecified) | 32
CCCCCCC(O)(Cn1cncn1)c1ccc(Cl)cc1Cl (stereo unspecified) | 933
CCCC(O)(Cn1cncn1)c1ccc(Cl)cc1Cl (stereo unspecified) | 522
CCCCCC(O)(Cn1cncn1)c1ccccc1F (stereo unspecified) | 522
CCCCCC(O)(Cn1cncn1)c1ccc(F)cc1F (stereo unspecified) | 130
CCCCCC(O)(Cn1cncn1)c1ccc(F)cc1 (stereo unspecified) | 34
CCCCCCC(O)(Cn1cncn1)c1ccc(F)cc1F (stereo unspecified) | 261
CCCCC(O)(Cn1cncn1)c1ccc(Cl)cc1Cl (stereo unspecified) [HEXACONAZOLE] | 522
CCCCCCC(O)(Cn1cncn1)c1ccc(F)cc1 (stereo unspecified) | 32
CCCCCC(O)(Cn1cncn1)c1ccc(Cl)cc1 (stereo unspecified) | 261
CCCCCCCCC(O)(Cn1cncn1)c1ccc(F)cc1F (stereo unspecified) | 54
CCCCCC(O)(Cn1cncn1)c1ccc(Cl)cc1Cl (stereo unspecified) | 65
CCCCC(O)(Cn1cncn1)c1ccc(F)cc1F (stereo unspecified) | 600

----------
# Test description: Selectivity index, ratio of EC50 for toxicity in human A549 cells to MIC50 for antifungal activity against ITC and FLC-susceptible Candida albicans ATCC MYA-2310
# Type: cell-based
# Run parameters: read-out: Selectivity Index
Parameter: selectivity ratio

Compound | Parameter | Reported value
CCCC(O)(Cn1cncn1)c1ccc(Cl)cc1Cl (stereo not given) | selectivity ratio | 8
CCCCCCC(O)(Cn1cncn1)c1ccc(Cl)cc1 (stereo not given) | selectivity ratio | 1
CCCCCCC(O)(Cn1cncn1)c1ccccc1Cl (stereo not given) | selectivity ratio | 16
CCCCCCC(O)(Cn1cncn1)c1ccc(Cl)cc1Cl (stereo not given) | selectivity ratio | 10
CCCCCCC(O)(Cn1cncn1)c1ccccc1F (stereo not given) | selectivity ratio | 32

----------
# Test description: Hemolytic activity in mouse erythrocytes assessed as hemolysis level at 31.3 ug/ml incubated for 1 hr at 37 degC
# Type: ADME, cell-based, Erythrocyte
# Run parameters: read-out: Activity

Molecule | Unit info | hemolysis at 1 h, 31.3 ug/ml
CCCCCCC(O)(Cn1cncn1)c1ccc(F)cc1F (stereo not given) | % | 10.4
CCCCCCC(O)(Cn1cncn1)c1ccccc1Cl (stereo not given) | % | 0
CCCCCCCCC(O)(Cn1cncn1)c1ccc(F)cc1F (stereo not given) | % | 68.4
CCCCC(O)(Cn1cncn1)c1ccc(F)cc1F (stereo not given) | % | 3.7
CCCCCC(O)(Cn1cncn1)c1ccc(F)cc1F (stereo not given) | % | 10.1
CCCCC(O)(Cn1cncn1)c1ccc(Cl)cc1Cl (stereo not given) [HEXACONAZOLE] | % | 0
CCCCCC(O)(Cn1cncn1)c1ccccc1Cl (stereo not given) | % | 0
CCCCCCC(O)(Cn1cncn1)c1ccc(F)cc1 (stereo not given) | % | 0
CCCCCCC(O)(Cn1cncn1)c1ccc(Cl)cc1 (stereo not given) | % | 9.5
CCCCCCC(O)(Cn1cncn1)c1ccc(Cl)cc1Cl (stereo not given) | % | 92
C[C@@H]1[C@H](O)[C@@H](C)/C=C/C=C/C=C/C=C/C=C/C=C/C=C/[C@H](O[C@@H]2O[C@H](C)[C@@H](O)[C@H](N)[C@@H]2O)C[C@@H]2O[C@](O)(C[C@@H](O)C[C@@H](O)[C@H](O)CC[C@@H](O)C[C@@H](O)CC(=O)O[C@H]1C)C[C@H](O)[C@H]2C(=O)O [AMPHOTERICIN B] | % | 80
CCCCCC(O)(Cn1cncn1)c1ccccc1F (stereo not given) | % | 0
CCCCCC(O)(Cn1cncn1)c1ccc(Cl)cc1Cl (stereo not given) | % | 90.5
OC(Cn1cncn1)(Cn1cncn1)c1ccc(F)cc1F [FLUCONAZOLE] | % | 7.5
CCCCCCC(O)(Cn1cncn1)c1ccccc1F (stereo not given) | % | 8.7
